Numbers sourced from the supplement of paper PMC10567573.

B1: TRAF3IP2 (parent)
chain: KQGSMNFRFIPVLFPNAKKEHVPT

variants of: B1; assay: protein stability index of a GFP-peptide fusion (GPS, HEK-293T) (PSI 1-6); higher = more stable; settings: c terminus: a fixed tail appended;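 further: lentivirally expressed fusions sorted by FACS into six bins by GFP to DsRed ratio, PSI derived from sequencing read proportions per bin multiplied by bin number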
ENDPOINT_NAME: protein stability index
Please give only the number in your answer, with no unit.

Below, 5 variants whose answers are already recorded.
VARIANT_CODE | protein stability index
P23E | 2.19
P15D | 2.05
H21I | 1.59
Q2W | 2.27
V22I | 2.11

Task: Which protein stability index is reported for this variant? "N6L"
Output: 1.81

Task: Which protein stability index is reported for this variant? "P11M"
Output: 2.98

Task: Which protein stability index is reported for this variant? "P15E"
Output: 2.14

Task: Which protein stability index is reported for this variant? "V22A"
Output: 2.22

Task: Which protein stability index is reported for this variant? "M5S"
Output: 2.04
